experiment: yeast display, Sf9 membrane polyspecificity reagent, FACS + sequencing; frameworks hold sequencing errors
MEASUREMENT_NAME: polyreactivity (PSR sort gate)

Study these solved cases before continuing.
QVQHVESGGGLVQAGGNLRLSCPASGRTIYSYTMGWYRQTPGKERELVAAINRSGGRTYYADSVKGRFTISRDNAKNTVYLQMNSLKQEDTAVYYGNALEYYRYDYWGQGTQVTVSS high polyreactivity
QVQLVESGGGLVQAGGSLRLSCAASGRTFIVYAMGWYRQAPGKERELVAGITRGSTNYADSVKGRFTISRDNAKNTVYLQMNSLKPEDTAVYYCAARSSRRGPISEGDYWGQGTQVTVSS high polyreactivity
QVQLVESGGGLVQAGGSLRLSCAASGSTLYRYAMGWYRQAAGKERELVATITRSGGSTYYADSVKGRFTISRDNAKNTVYLQMNSLKPEDTAVYSCAAYRKVGGFSRGDYWGQGTQVTVSS high polyreactivity
QVQLVESGGGLVQAGGSLRLSCAAYGSIFYWYAMGWYRQAPGKERELVAAISSSNDSTDYADSVKGRFTISRDNAKNTVYLQMNSLKPEDTAVYYCAALYGTIQYDYWGQGTQVTVSS low polyreactivity
QVQLVESGGGLVQAGGSLRLSCAASGRIFSYYAMGWYRQAPGKERELVATINSGGSTNYADSVKGRFTISRDNAKNTVYLQMNSLKPEDTAVYYCAASPVWWYDYWGQGTQVTVSS low polyreactivity
QVQLVESGGGLVQAGGSLRLSCAASGSIFRIYVMGWYRQAPGKERELVAAITNDGSTSYADSVKGRFTISRDNAKNTVYLQMNSLKPEDTAVYYCNAYRRRATYNGDYWGQGTQVTVSS high polyreactivity
QVQLVESGGGLVQAGGSLRLSCAASGIIFPFYMGWYRQAPGKEREFVADITYSGGSTYYADSVKGRFTISRDNAKNTVYLQMNSLKPEDTAVYYCAAKFYWRGQSFRSGNFYWGQGTQVTVSS high polyreactivity
QVQLVESGGGLVQAGGILRLSCAASGFTFGRYAMGRSRQAPGKEREFVAAISYTGTSTYYADSVKGRFTISRDNAKNTVYLQMNSRNPEDTAVYYCNAKWRSHYTQWSYDYWGQCTQVTVSS high polyreactivity
QVQLVESGGGLVQAGGSLRLSCAASAFTFDPYARGWYRHAPGKERELDAANSWSGGSTYYADSVKGRFTISRDHAKNSVYLQMNSLKPEDTAVYYCAAEWYNSAYYEYDYWGQGTQVTVSS high polyreactivity
QVQLVESGGGLVQAGGSLRLSCAASGSTFAFYAMGWYRQAAGKERELVAAITWDGGTTYYADSVKGRFTLSRDNAKNTVYLQMNSLKPEDTAVYYCASDYAWFSIYDNVPSAPGYDYWGQGTQVTVSS low polyreactivity

Would you kindly share the measured polyreactivity (PSR sort gate) for QVQLVESGGGLVQAGGRLRLSCAASGRTIPYYAMGWSRQSPGKDREFVAAISGGGGSTHYADSVKGRFTISRDNAKNTVYLQMNSLKPEDTAVYYCNADKYSVYGEHPYDYWGQGSQVTVSS ?
low polyreactivity

Find the recorded polyreactivity (PSR sort gate) belonging to QVQLVESGGGLVQAGGSLRLSCAASGFTFDANAMGWYRQAPGKERELVAAISWSGGSTYYADSVKGRFTISRDNAKNTVYLQMNSLKPEDTAVYYCAARRYSYVGGQGSDYWGQGTKVTVSS and report it.
high polyreactivity

What does the data say about its polyreactivity (PSR sort gate)? Entry: QVQLVESGGGLVQAGGSLRLSCAASGRPFGGNTMGWYRQAPGKERALVAAISFSGGSTYYADSVKGRFSSSRDNAKNTVYFQMNSLKPEDTAVYYCARDDYSHSFLTYDYWGQGTQVTVSS
low polyreactivity

====

assay: yeast display, Sf9 membrane polyspecificity reagent, FACS + sequencing; frameworks hold sequencing errors
MEASUREMENT_NAME: polyreactivity (PSR sort gate)

The cases that follow already have their polyreactivity (PSR sort gate) on record.
QVQLVESGGGLVQAGGSLRLSCAASGLTFHRYAMGWYRPAPGKERELVAGISWSGASTYYADSVKGRFTISRDNAKNTVYLQMNSLKPEDTAVYYCAARRYYKYDWGQGTQVTVSS high polyreactivity
QVQLVESGGGLVQAGGSLRLSCAASGIIYGNVMGWYRQAPGKESELVAAITGSGGSTYYADSVKGRFTISRDNAKNTVYLQMNSLKPEDTAVYYCAADLALYNTLYLTLPDYYWGEGTQVTVSS low polyreactivity
QVQLVESGGGLVQAGGSLRLSCAASGSIYTSNAMGWYRQAPGKERELVAVITWRSGRTYYADSVKGRFTISRDNAMNTVYLQMNSLKPEDTAVYYCDALRYPKQKFDSWGQGTQVTVSS high polyreactivity
QVQLVESGGGLVQAGGSLRLSCDASGLIFITYAMRWYRQAPGKERELVATITLRGGSTYYADSVKGRFTISRDNAKNTVYLQMNSLKPEDTAVYYCAAEVGYWGRSRGYPSDDYDYCGQGTQVTVSS low polyreactivity
QVQLVESAGGLVQAGGSLRLSCAASGSICTKYAMGWYRQAPGKERELVAAISASGGSTYYADSVKGRFTISRDNAKNTVYLQMNSLKPEDTAVYYCAARYWVREDYWGQGTQVTVSS high polyreactivity

In the following, a different sequence is considered.
Please report the recorded polyreactivity (PSR sort gate) for QVQLVESGGGLVQAGGSLRLSCAASGRTLNDYAMEWYRQAPGKERELVAGITSGDSTYYADSVKGRFTISRDNAKNTVYLQMNSLIPEDTAVYYCAADSDTFYYTGYDYDYWGQGTQVTVSS .
low polyreactivity

====

test: yeast display, Sf9 membrane polyspecificity reagent, FACS + sequencing; frameworks hold sequencing errors
MEASUREMENT_NAME: polyreactivity (PSR sort gate)

QVQLVESRGGLVQAGGSLRLSCAASGLTFRYYAMGWYRQAPGKERELVAAITASVGSTYYADSVKGRFTISRDNAKNTVYLQMNSLKPEDTAVYYCAADSEQDNLRYYRWVWYYYWGQGTQVTVSS low polyreactivity
QVQLVESGGGLVQAGGSLRLSCAASGFTFDPYAIGWYRQAPGKERELVAAISISGGRTYYADSVKGRITISRDNAKNTVYVQMISLKPEDSAVYYCAVAQSHYFGGYGYWGQGTKVTVSS low polyreactivity
QVQLVESGGGLVQAGGSLRLSCAASGYIFDVYAMGWYRQAPGKERELVAAISSSGGRTYYADSVKGRFTISRDTAKNTVYLQMNSLKPEDTAVYYCAAKTHSRTKVYTADYWGQGTQVTVSS high polyreactivity
QVQLVESGGGLVQAGGSLRLICAASRFTYYRNVMGWYRQAPGKERELVAPISRRGDRTYADSVKGRFTISRDNAKNTVYLQMNSLKPEDTAVYYFAPTPYSYWTRYYYWGQGTQVTVTS high polyreactivity

====

experiment: yeast display, Sf9 membrane polyspecificity reagent, FACS + sequencing; frameworks hold sequencing errors
MEASUREMENT_NAME: polyreactivity (PSR sort gate)

Example cases with answers are listed next.
QVQLVESGGGLVQAGGSLRLSCAASGGIFGSYAMGWYRQAPGKERELVAAISGGSTYYADSVKGRFTISRDNAKNTVYLQMNSLKPEDTAVYYCAAGWSVWYQDFDYWGQGTQVTVSS high polyreactivity
QVQLVESGGGLVQAGGSLRLSCAASGSNFKWYAMGWYRQAPGKERELVSAISKSGGSTYYADSVKGRFTISRDNAKNTVYLQMNSLKPEDTAVYYCNAVYIGSRRRYEYDYWGQGTQVTVSS high polyreactivity
QVQLVESGGGLVQAGGSLRLSCAASGRIFGVYAMGCYRQATGKERELVATNTSGGSTSYADSVKGRFTISRDNAKNPVYLQMNSLKPEDTAVYYCNAPYSFFWQQMNYWGQGTQETVSS low polyreactivity
QVQLEDSGGGLVQAGGSLRLSCAASGFIFLPNAMGWYRQAPGKERELVAAISTSDGSTYYADSVKGRFTISRDNAKNTVYLQMNSLKPEDTAVYYCAASYQFYRKYAYDYWGQGTQVTVSS low polyreactivity

What polyreactivity (PSR sort gate) value was documented for this sequence, QLQLVESGGGLVQAGGSLRLSCAASGRIFDGNTMGWYRQAPGKERELVAAITYSGGRTSYADSVKGRFTISRDNAKNTVYLQMISLKPEDTAVYYCNARVVTGSWYEGYYWGQGTQVTVSS ?
low polyreactivity

====

test: yeast display, Sf9 membrane polyspecificity reagent, FACS + sequencing; frameworks hold sequencing errors
MEASUREMENT_NAME: polyreactivity (PSR sort gate)

QVQLVESGGGLVQAGGSLRLSCAASGGTSFYAMGWYRQAPGKDRELVAAITRSGGSTYYADSVKGRFTFSRDNAKNTVYLQMNSLKPEDTAVYYCAALSNHGYYIRMDYWGQGTQVTVSS high polyreactivity
QVQLVESGGGLVQAGGSLRLSCAASGSTFNLNAMGWYRQAPGKERELVAAIDSGGRTNYADSVKGRFTISRDNAKNTVYLQMNSLKPEDTAVYYCAARVLPYLTPRRQMYYWGQGTQVTVSS low polyreactivity
QVELVESGGGLVQAGGSLRLSCPASGRTFYYYAMGWSRQEPGKERELVATITKSSGSTYYADSVKGRFTISRDNAKNTVYLQMNSLKPEDTAVYYCNADPWAKTPYYYWGQGTQVTVSS high polyreactivity
QVQLVESGGGLVQAGGSLRLSCAASGSTFGRYTMGWYRQAPGKERQLVAAISSSGGGTYYADSVKGRLTISRDNAKNTVYLQMNSLKPEDTAVYYCAALGSRRYTRYGLTGFDYWGQGTQVTVSS high polyreactivity

What value of polyreactivity (PSR sort gate) has been reported for the following sequence? QVQLVESGGGLVQAGGSLRLSFAASGRTFSGYAMGWYRQAPGKERELVASISGSGSSTYYADSVKGRFTISRDNAKNTVYLQMNSLKPEHTAVYYCNATRAGENPDGGDEYWGQGTQVTVSS
high polyreactivity

# input sequence: QVQLVESGGGVVQAGGSLRLTCAASGIIFYRYSMGWYSQAPGKERELVAAISIGGGSTYYADSVKVRFTISRYNAKNTVYLEMNSLKPEDTAVYYCAADTYNYVGYNGHDYWGQGTQVTVSS ; wanted: its polyreactivity (PSR sort gate)
low polyreactivity

So what does the record say about polyreactivity (PSR sort gate) for QVQLVESGGGLVQAGGSLRLSCAASASIFYYYAMGWYRQEPGKERELVAALSDSGSTNYADSVKGRFTISRDNAKNTVYLQLNSLKPEDTAVYYCAAGFGSRRYRGVYYKMYYRGQGTQVTVSS ?
high polyreactivity

Query (sequence): QDQLEDSGGGLVQAGGSLRLSCAASGRTFTLYAMGWSRQAPGKERELVASISRSGGSTYYADSVKGRFTISRDNAKNTVYLQMNSVKPEDTAVDYCAARRFAWLFIYDYWGQGTQVTVSS ; field requested: polyreactivity (PSR sort gate)
high polyreactivity

Fill in: polyreactivity (PSR sort gate) of QVQLVESGGGLVQAGGSLRLSSAASGSTFTFYAMGWYRQAPGKERELVATISWSTGTTYYADSVKGRFTISRDNAKNTVYLQMNSLKPEVTAVYYCAAPWSYRYDYWGQGTQVTVSS is ___
low polyreactivity

Please report the recorded polyreactivity (PSR sort gate) for QVQLEESGRGLVQAGVSLRLSSAASGNTFVTNTMVWYRQAPGKERELVAAIDSGGDSYYADSVKGRFTISRDNAKNTVYFQMNSLKPEDTAVYYCAAVGDRNYFSNRRYEYWGQGTQVTVSS .
low polyreactivity

Consider the sequence QLQHVESGGGLVQAGGSLRLSCAGTGRIMWRNAMGWYRQAPGKEMELVAAITSGSRTSYADSVKGRFTISRDNSKNTVYLQMNSLKPEDTAVYYCARRSYGIYYRSADESWGQGTQVTVSS and give its measured polyreactivity (PSR sort gate).
high polyreactivity

Name the recorded polyreactivity (PSR sort gate) for QVLLVESGRGIVQAGGSLRLSCAASGGTFQPYAMGWYRQDTGKERELVAANSLNTGSTYYADSVKGRFTISRDNAKNTVYLQMNSLKPEDTAVDYCAVKWFYGGYDYWGQGTQVTVSS .
low polyreactivity

All values here come from the nanobody polyreactivity screen of Harvey et al. (2022).
